Tested on: Penicillium expansum EPS26
Assay: MIC, antifungal growth inhibition in microtiter plates (PDB)
Type: cell-based
Conditions: Pe, 22°C, seven days, OD 600 nm, lowest concentration with no growth, given as interval of tested concentrations, three replicates, experiment repeated twice
Protocol: The following plant pathogenic fungal strains were used: Penicillium expansum EPS26 (Institut de Tecnologia Agroalimentària, Universitat de Girona, Spain) and Fusarium oxysporum f. sp. lycopersici FOL 3 race 2 (ATCC 201829, American Type Culture Collection,Virginia, EEUU). […] Three replicates for each combination of strain, compound and concentration were used. Microbial growth was determined by optical density measurement at 600 nm (Bioscreen C, Labsystem, Helsinki, Finland). […]
MEASUREMENT TYPE: MIC

| MOLECULE | MEASUREMENT TYPE | REPORTED MEASUREMENT |
| --- | --- | --- |
| CCCCCC(=O)NCCCC[C@H](NC(=O)[C@H](Cc1ccc(O)cc1)NC(=O)[C@H](CCCCN)NC(=O)[C@H](CC(C)C)NC(=O)[C@@H](NC(=O)[C@H](CCCCN)NC(=O)[C@H](CCCCN)NC(=O)[C@H](Cc1ccccc1)NC(=O)[C@H](CC(C)C)NC(=O)[C@H](CCCCN)NC(=O)[C@H](CCCCN)NC(C)=O)[C@@H](C)CC)C(N)=O [BP378, Ac-KKLFKKILKYK(COC5H11)-NH2] | MIC | 3.1 to 6.2 µM |
| CCCC(=O)NCCCC[C@H](NC(=O)[C@H](CCCCN)NC(=O)[C@H](CCCCN)NC(=O)[C@H](Cc1ccccc1)NC(=O)[C@H](CC(C)C)NC(=O)[C@H](CCCCN)NC(=O)[C@H](CCCCN)NC(C)=O)C(=O)N[C@@H](CC(C)C)C(=O)N[C@@H](CCCCN)C(=O)N[C@@H](Cc1ccc(O)cc1)C(=O)N[C@@H](CC(C)C)C(N)=O [BP386, Ac-KKLFKKK(COC3H7)LKYL-NH2] | MIC | >25 µM |
| CCCC(=O)NCCCC[C@H](NC(=O)[C@H](CCCCN)NC(C)=O)C(=O)N[C@@H](CC(C)C)C(=O)N[C@@H](Cc1ccccc1)C(=O)N[C@@H](CCCCN)C(=O)N[C@@H](CCCCN)C(=O)N[C@H](C(=O)N[C@@H](CC(C)C)C(=O)N[C@@H](CCCCN)C(=O)N[C@@H](Cc1ccc(O)cc1)C(=O)N[C@@H](CC(C)C)C(N)=O)[C@@H](C)CC [BP381, Ac-KK(COC3H7)LFKKILKYL-NH2] | MIC | 1.6 to 3.1 µM |

---

Test system: defense-related genes in tomato plants
Experiment: Induction of defense gene expression of tomato plants (RT-qPCR)
Assay type: in vivo, tomato cv. Rio Grande
Details: tomato leaves sprayed, 24 h; peptides and flg15 125 μM, JA 2.5 mM, ASM 300 mg/L; ΔΔCt relative to actin; above 2 = overexpression
Experimental: Seeds of tomato cv. Rio Grande plants were sown in hydroponic seed plugs (rockwool), germinated and grown under controlled greenhouse conditions (25 ± 2°C, 16 h light / 15 ± 2°C, 8 h dark, and 60% RH). […] In each step, the RNA was quantified using a Nanodrop N-2000 spectrophotometer, and its integrity verified by denaturing agarose gel electrophoresis. […] To test gene defense induction in the treated tomato plants, a qPCR assay was performed. […] Each biological repetition treatment was analyzed in duplicate. […]
Reported PinII gene expression, fold induction values follow for various compounds
MEASUREMENT TYPE: PinII gene expression, fold induction

| COMPOUND | REPORTED MEASUREMENT |
| --- | --- |
| CC[C@H](C)[C@H](NC(=O)[C@H](CCCCN)NC(=O)[C@H](CCCCN)NC(=O)[C@H](Cc1ccccc1)NC(=O)[C@H](CC(C)C)NC(=O)[C@H](CCCCN)NC(=O)[C@@H](N)CCCCN)C(=O)N[C@@H](CC(C)C)C(=O)N[C@@H](CCCCN)C(=O)N[C@@H](Cc1ccc(O)cc1)C(=O)N[C@@H](CC(C)C)C(N)=O | 4.9 |
| CCCCCC(=O)NCCCC[C@H](NC(=O)[C@H](CC(C)C)NC(=O)[C@H](CCCCN)NC(=O)[C@H](CCCCN)NC(C)=O)C(=O)N[C@@H](CCCCN)C(=O)N[C@@H](CCCCN)C(=O)N[C@H](C(=O)N[C@@H](CC(C)C)C(=O)N[C@@H](CCCCN)C(=O)N[C@@H](Cc1ccc(O)cc1)C(=O)N[C@@H](CC(C)C)C(N)=O)[C@@H](C)CC | 1.7 |
| CCCCCC(=O)NCCCC[C@H](NC(=O)[C@H](CCCCN)NC(=O)[C@H](CCCCN)NC(=O)[C@H](Cc1ccccc1)NC(=O)[C@H](CC(C)C)NC(=O)[C@H](CCCCN)NC(=O)[C@H](CCCCN)NC(C)=O)C(=O)N[C@@H](CC(C)C)C(=O)N[C@@H](CCCCN)C(=O)N[C@@H](Cc1ccc(O)cc1)C(=O)N[C@@H](CC(C)C)C(N)=O | 1.7 |
| CC/C=C\C[C@H]1C(=O)CC[C@@H]1CC(=O)O [JA, jasmonic acid, reference compound] | >50 |
| CCCC(=O)NCCCC[C@H](NC(=O)[C@H](Cc1ccc(O)cc1)NC(=O)[C@H](CCCCN)NC(=O)[C@H](CC(C)C)NC(=O)[C@@H](NC(=O)[C@H](CCCCN)NC(=O)[C@H](CCCCN)NC(=O)[C@H](Cc1ccccc1)NC(=O)[C@H](CC(C)C)NC(=O)[C@H](CCCCN)NC(=O)[C@H](CCCCN)NC(C)=O)[C@@H](C)CC)C(N)=O | 0.2 |
| CSC(=O)c1cccc2nnsc12 [ASM, acybenzolar-S-methyl, reference compound] | 0.5 |
| CCCCCCCCCCCC(=O)NCCCC[C@H](NC(=O)[C@H](CC(C)C)NC(=O)[C@@H](NC(=O)[C@H](CCCCN)NC(=O)[C@H](CCCCN)NC(=O)[C@H](Cc1ccccc1)NC(=O)[C@H](CC(C)C)NC(=O)[C@H](CCCCN)NC(=O)[C@H](CCCCN)NC(C)=O)[C@@H](C)CC)C(=O)N[C@@H](Cc1ccc(O)cc1)C(=O)N[C@@H](CC(C)C)C(N)=O | 1.1 |
| CCCC(=O)NCCCC[C@H](NC(=O)[C@H](CCCCN)NC(=O)[C@H](Cc1ccccc1)NC(=O)[C@H](CC(C)C)NC(=O)[C@H](CCCCN)NC(=O)[C@H](CCCCN)NC(C)=O)C(=O)N[C@H](C(=O)N[C@@H](CC(C)C)C(=O)N[C@@H](CCCCN)C(=O)N[C@@H](Cc1ccc(O)cc1)C(=O)N[C@@H](CC(C)C)C(N)=O)[C@@H](C)CC | 7.1 |
